Tested on: HeLa
ASSAY TEXT: MTT antiproliferative assay, 72 h
Type: cell-based, human
EXPERIMENTAL CONDITIONS: Homo sapiens, HeLa, 72 h, read-out: IC50 HeLa
PROPERTY MEASURED: pIC50
Reminder that pIC50 means the negative base-10 logarithm of the concentration expressed in mol/L.

Challenge: Request the reported pIC50 associated with O=C([O-])Cc1ccccc1Nc1c(Cl)cccc1Cl.[Na+] [DCF, reference compound]
Response given: 3.60

###

Tested on: HeLa cells
ASSAY TEXT: Cellular accumulation of platinum (ICP-MS)
Format: cell-based, human
EXPERIMENTAL CONDITIONS: 10 μM complex, 6 h
PROPERTY MEASURED: cellular uptake 10 μM/6 h (ng Pt/10^6 cells)
Kindly answer with a numeric value in ng Pt/10^6 cells, unit omitted.

Challenge: Request the reported cellular uptake 10 μM/6 h associated with Cc1c(C)c2cccnc2c2ncccc12.N[C@H]1CCCC[C@@H]1N.[Pt]
Response given: 72

Challenge: Thanks! And Cc1c(C)c2c3c4c1=CC=C[N]4[Pt]([Cl])([Cl])[N]3C=CC=2.N[C@H]1CCCC[C@@H]1N ?
Response given: 47

Challenge: Thanks! And Cc1c(C)c2c3c4c1=CC=C[N]4[Pt][N]3C=CC=2.NCCNC(=O)Cc1ccccc1Nc1c(Cl)cccc1Cl.NCCNC(=O)Cc1ccccc1Nc1c(Cl)cccc1Cl.N[C@H]1CCCC[C@@H]1N ?
Response given: 82

Challenge: Thanks! And Cc1c(C)c2c3c4c1=CC=C[N]4[Pt]([Cl])[N]3C=CC=2.NCCNC(=O)Cc1ccccc1Nc1c(Cl)cccc1Cl.N[C@H]1CCCC[C@@H]1N ?
Response given: 61

Challenge: Thanks! And N.N.[Cl][Pt][Cl] [cisplatin, reference compound] ?
Response given: 10
